target: recombinant human Cathepsin K (Homo sapiens (Human)); assay: Inhibition of human Cathepsin K; details: substrate Z-Gly-Pro-Arg-AMC
PARAMETER MEASURED: pIC50
The scale used: pIC50 is minus the common logarithm of the concentration in molar units.

CCS(=O)(=O)c1ccc(-c2ccc(CC(C#N)NC(=O)[C@H]3N[C@@H]4CC[C@H]3C4)c(F)c2)cc1 (stereo partly shown); 5.32
C[S+]([O-])c1ccc(-c2ccc(C[C@@H](C#N)NC(=O)[C@H]3N[C@@H]4CC[C@H]3C4)c(F)c2)cc1 (stereo partly shown); 5.46
N#C[C@H](Cc1ccc(-c2ccc(C(=O)O)s2)cc1F)NC(=O)[C@H]1N[C@@H]2CC[C@H]1C2; 5.64

Query block: pIC50 lookup needed for N#C[C@H](Cc1ccc(-c2csc(C(=O)N3CCN(C4CC4)CC3)c2)cc1F)NC(=O)[C@H]1N[C@@H]2CC[C@H]1C2 , thanks.
Result block: 5.80

Query block: Field request: pIC50 | item: CS(=O)(=O)c1ccc(-c2ccc(CC(C#N)NC(=O)[C@H]3N[C@@H]4CC[C@H]3C4)c(F)c2)cc1 (stereo partly shown)
Result block: 5.35

Query block: # input compound: N#CC(Cc1ccc(-c2ccc(C(N)=O)cc2)cc1F)NC(=O)[C@H]1N[C@@H]2CC[C@H]1C2 (stereo partly shown) ; wanted: its pIC50
Result block: 5.29

Query block: I would be grateful if you could share the reported pIC50 for N#C[C@H](Cc1ccc(-c2ccc(C(=O)N3CCOCC3)o2)cc1F)NC(=O)[C@H]1N[C@@H]2CC[C@H]1C2 .
Result block: 5.66

###

molecular target: recombinant human Cathepsin K (Homo sapiens (Human), UniProt P43235); experiment: Inhibition of human Cathepsin K; settings: substrate Z-Gly-Pro-Arg-AMC
Sequence (P43235 115-329): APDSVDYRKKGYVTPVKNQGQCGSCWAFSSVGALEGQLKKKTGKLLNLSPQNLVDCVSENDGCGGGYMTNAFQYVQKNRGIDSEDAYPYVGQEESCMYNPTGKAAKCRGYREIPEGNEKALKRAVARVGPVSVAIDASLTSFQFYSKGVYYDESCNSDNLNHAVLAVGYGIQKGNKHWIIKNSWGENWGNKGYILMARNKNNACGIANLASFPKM
IC50 under 5 µM gets satisfied, anything at or over 5 µM gets not satisfied.

Check out these entries, answers already filled in.
CS(=O)(=NC#N)c1ccc(-c2ccc(C[C@@H](C#N)NC(=O)[C@H]3N[C@@H]4CC[C@H]3C4)c(F)c2)cc1 (some centres unmarked); satisfied
CS(=O)(=O)Nc1cccc(-c2ccc(C[C@@H](C#N)NC(=O)[C@H]3N[C@H]4C[C@@H]3[C@@H]3C[C@@H]34)c(F)c2)c1; satisfied
N#Cc1ccc(-c2ccc(C[C@@H](C#N)NC(=O)[C@H]3N[C@H]4C[C@@H]3[C@@H]3C[C@@H]34)c(F)c2)s1; not satisfied
N#CC(Cc1ccc(-c2ncc(Cl)cn2)cc1F)NC(=O)[C@H]1N[C@@H]2CC[C@H]1C2 (some centres unmarked); not satisfied

Query block: Lab note: confirm whether the reported IC50 for this compound is below 5 µM, equality not counting. compound: N#C[C@H](Cc1ccc(-c2cc(C(=O)N3CCn4nccc4C3)co2)cc1F)NC(=O)[C@H]1N[C@@H]2CC[C@H]1C2
Result block: not satisfied

Query block: Consider the compound N#C[C@H](Cc1ccc(N2CCN3CCOC[C@@H]3C2)cc1F)NC(=O)[C@H]1N[C@@H]2CC[C@H]1C2 . Is its IC50 strictly less than 5 µM?
Result block: satisfied

Query block: Quick check: IC50 of CN1CCC2(CC1)CC(c1ccc(C[C@@H](C#N)NC(=O)[C@H]3N[C@@H]4CC[C@H]3C4)c(F)c1)C2 under 5 µM?
Result block: not satisfied

Query block: Lab log: compare recorded IC50 with 5 µM; is it strictly lower for Cc1ccc(-c2ccc(C[C@@H](C#N)NC(=O)[C@H]3N[C@@H]4CC[C@H]3C4)c(F)c2)o1 ?
Result block: satisfied

Query block: Please indicate whether the reported IC50 of N#CC(Cc1ccc2c(c1)c(=O)[nH]c1cc(Cl)ccc12)NC(=O)[C@H]1N[C@@H]2CC[C@H]1C2 (some centres unmarked) is strictly below 5 µM.
Result block: not satisfied

Query block: Would you kindly verify if IC50 of CN1C(=O)Cc2ccc(-c3ccc(CC(C#N)NC(=O)[C@H]4N[C@@H]5CC[C@H]4C5)c(F)c3)cc21 (some centres unmarked) is strictly less than 5 µM?
Result block: satisfied

Query block: Decide: IC50 of COC(=O)c1cc(-c2ccc(C[C@@H](C#N)NC(=O)[C@H]3N[C@H]4C[C@@H]3[C@@H]3C[C@@H]34)c(F)c2)cs1 strictly below 5 µM?
Result block: not satisfied

Query block: Does this compound meet the criterion IC50 < 5 µM? N#C[C@H](Cc1ccc(-c2csc(C(=O)N3CCN4CCOCC4C3)c2)cc1F)NC(=O)[C@H]1N[C@@H]2CC[C@H]1C2 (some centres unmarked)
Result block: satisfied

Query block: API: query returns whether the compound falls strictly under 5 µM in IC50. Query: CS(=O)(=O)c1ccc(-c2ccc(C[C@@H](C#N)NC(=O)[C@H]3N[C@@H]4CC[C@H]3C4)c(F)c2)cc1
Result block: satisfied

Query block: Input CC(=O)NCCn1cc(-c2ccc(C[C@@H](C#N)NC(=O)[C@H]3N[C@@H]4CC[C@H]3C4)c(F)c2)cn1 ; condition: IC50 strictly below 5 µM. Does it hold?
Result block: satisfied

###

molecular target: recombinant human DPPI (Cathepsin C) (Homo sapiens (Human)); assay: Inhibition of human DPPI (Cathepsin C); format: biochemical; settings: substrate Gly-Arg-AMC
Sequence (P53634 231-394): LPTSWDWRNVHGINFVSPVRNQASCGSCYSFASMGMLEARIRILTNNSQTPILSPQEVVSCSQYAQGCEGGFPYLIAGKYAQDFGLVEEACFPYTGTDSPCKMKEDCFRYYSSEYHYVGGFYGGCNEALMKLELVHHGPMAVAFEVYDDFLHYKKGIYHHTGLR
Sequence (P53634 395-463): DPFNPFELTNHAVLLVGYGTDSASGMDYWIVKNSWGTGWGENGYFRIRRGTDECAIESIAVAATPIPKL
Sequence (P53634 25-134): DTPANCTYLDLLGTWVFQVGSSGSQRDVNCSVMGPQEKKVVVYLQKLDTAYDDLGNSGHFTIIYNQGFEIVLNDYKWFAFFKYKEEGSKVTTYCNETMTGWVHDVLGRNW
PARAMETER MEASURED: log10 of IC50 (log10 of the value in nM)
Hey, these are logged values: log10 of IC50, nM being the unit before logging.

Answered cases to consult:
N#C[C@H](Cc1ccc(-c2ccc(S(=O)(=O)N3CCOCC3)cc2)cc1F)NC(=O)[C@H]1N[C@@H]2CC[C@H]1C2 [Example 217]; 0.57
CS(=O)(=O)c1cccc(-c2ccc(CC(C#N)NC(=O)[C@H]3N[C@@H]4CC[C@H]3C4)c(F)c2)c1 (stereo partly drawn) [Example 88]; 1.18
N#C[C@H](Cc1ccc(-c2cnc3n2CCC3)cc1F)NC(=O)[C@H]1N[C@@H]2CC[C@H]1C2 [Example 221]; 0.57
COC(=O)Cn1cc(-c2ccc(C[C@@H](C#N)NC(=O)[C@H]3N[C@@H]4CC[C@H]3C4)c(F)c2)cn1 [Example 13]; 0.28
CN1CCC2CN(c3ccc(C[C@@H](C#N)NC(=O)[C@H]4N[C@@H]5CC[C@H]4C5)c(F)c3)CC21 (stereo partly drawn) [Example 349]; 1.31

Query block: Please tell me: log10 of IC50 of N#Cc1ccc(-c2ccc(C[C@@H](C#N)NC(=O)[C@H]3N[C@H]4C[C@@H]3[C@@H]3C[C@@H]34)c(F)c2)s1 [Example 40] , system recombinant human DPPI (Cathepsin C) (Homo sapiens (Human))?
Result block: 0.71

Query block: Tell me reported log10 of IC50 for CN1CCN(C(=O)c2cc(-c3ccc(C[C@@H](C#N)NC(=O)[C@H]4N[C@@H]5CC[C@H]4C5)c(F)c3)cs2)CC1=O [Example 233] , tested with recombinant human DPPI (Cathepsin C) (Homo sapiens (Human)).
Result block: 0.34

Query block: Enter reported log10 of IC50 observed with recombinant human DPPI (Cathepsin C) (Homo sapiens (Human)) for N#CC(Cc1ccc2c(c1)c(=O)[nH]c1c(F)c(F)c(F)cc12)NC(=O)[C@H]1N[C@@H]2CC[C@H]1C2 (stereo partly drawn) [Example 296]
Result block: 0.46

###

assay: Determination of metabolic stability with human liver microsomes; conditions: human, pooled human liver microsomes, pH 7.6
PARAMETER MEASURED: half-life at 1 μM

# count of solved cases: 2
N#C[C@H](Cc1ccc2c(c1)c(=O)[nH]c1cc(C(F)(F)F)ccc12)NC(=O)[C@H]1N[C@@H]2CC[C@H]1C2; 100 min
CN1CCC(N2C(=O)Cc3ccc(-c4ccc(C[C@@H](C#N)NC(=O)[C@H]5N[C@@H]6CC[C@H]5C6)c(F)c4)cc32)CC1; > 130 min

Continue with the next compound.
Query block: Which half-life at 1 μM is reported for this compound? CCN1CCC(c2ccc(C[C@@H](C#N)NC(=O)[C@H]3N[C@@H]4CC[C@H]3C4)c(F)c2)CC1
Result block: > 130 min

###

molecular target: recombinant human Cathepsin K (Homo sapiens (Human), UniProt P43235); test: Inhibition of human Cathepsin K; settings: substrate Z-Gly-Pro-Arg-AMC
PARAMETER MEASURED: pIC50
Please keep in mind that pIC50 is minus log10 of the molar concentration; only the number is needed.

Recorded pIC50, per entry:
COC(=O)Cn1cc(-c2ccc(C[C@@H](C#N)NC(=O)[C@H]3N[C@@H]4CC[C@H]3C4)c(F)c2)cn1 [Example 13]; 5.47
COCCN1CCN(c2ccc(C[C@@H](C#N)NC(=O)[C@H]3N[C@@H]4CC[C@H]3C4)c(F)c2)CC1 [Example 182]; 5.46
CN1CCc2cc(-c3ccc(C[C@@H](C#N)NC(=O)[C@H]4N[C@@H]5CC[C@H]4C5)c(F)c3)ccc2C1=O [Example 42]; 5.54
COc1ccccc1-c1cn(-c2ccc(C[C@@H](C#N)NC(=O)[C@H]3N[C@@H]4CC[C@H]3C4)c(F)c2)nn1 [Example 119]; 5.35
CS(=O)(=O)c1cccc(-c2ccc(C[C@@H](C#N)NC(=O)[C@H]3N[C@H]4C[C@@H]3[C@@H]3C[C@@H]34)c(F)c2)c1 [Example 144]; 4.95

Query block: Entry CC(O)Cc1cn(-c2ccc(C[C@@H](C#N)NC(=O)[C@H]3N[C@@H]4CC[C@H]3C4)c(F)c2)nn1 (stereo partly shown) [Example 101] has what pIC50?
Result block: 5.19

Query block: For the compound shown here, CCn1cc(-c2ccc(C[C@@H](C#N)NC(=O)[C@H]3N[C@@H]4CC[C@H]3C4)c(F)c2)cn1 [Example 26] , give the reported pIC50.
Result block: 5.44
